ASSAY: inhibitors of SNCA 5'UTR-driven reporter translation, confirmation, H4 neuroglioma cells, luminescence (AID 1988)
Type: functional, cell-based
Activity calls are given as the source filed them.
VALUE TYPE: EC50

INPUT: Could you tell me which EC50 is on file for COc1ccc(C(=O)[C@H]2[C@H]3C(=O)N(c4ccccc4)C(=O)[C@H]3C3C=CC=NN32)cc1 (some centres undefined) ?
OUTPUT: > 120 µM (not active)

INPUT: Could you tell me which EC50 is on file for CN(C)Cc1ccccc1Sc1ccc2c(c1)CCCC2 ?
OUTPUT: > 120 µM (not active)

INPUT: Could you tell me which EC50 is on file for O=S(=O)(c1ccc(Br)cc1)N1CCC(c2nc3ccccc3[nH]2)CC1 ?
OUTPUT: > 120 µM (not active)

INPUT: Could you tell me which EC50 is on file for COc1ccc(Cn2c(=O)[nH]c3cc(C(=O)NCc4ccc5c(c4)OCO5)ccc3c2=O)cc1 ?
OUTPUT: 11 µM (active)

====

I'd be grateful if you could share measured IC50 for these entries.
TESTED SYSTEM: Alkaline phosphatase, tissue-nonspecific isozyme (Homo sapiens)
Sequence (P05186 whole entry): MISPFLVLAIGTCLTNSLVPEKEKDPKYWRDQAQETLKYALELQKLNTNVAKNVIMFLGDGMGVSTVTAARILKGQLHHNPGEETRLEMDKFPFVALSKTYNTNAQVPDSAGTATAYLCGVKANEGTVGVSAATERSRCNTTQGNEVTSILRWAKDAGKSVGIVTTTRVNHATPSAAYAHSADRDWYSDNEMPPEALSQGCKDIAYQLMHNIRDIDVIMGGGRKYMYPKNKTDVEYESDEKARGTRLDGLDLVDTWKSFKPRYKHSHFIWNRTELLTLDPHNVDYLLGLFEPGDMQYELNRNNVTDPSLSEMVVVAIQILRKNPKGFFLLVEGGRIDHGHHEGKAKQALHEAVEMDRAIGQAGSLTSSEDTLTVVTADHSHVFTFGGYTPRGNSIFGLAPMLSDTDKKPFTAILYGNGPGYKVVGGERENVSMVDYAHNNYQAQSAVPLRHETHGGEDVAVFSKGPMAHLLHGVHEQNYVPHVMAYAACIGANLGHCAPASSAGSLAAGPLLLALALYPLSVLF
ASSAY: human TNAP enzyme inhibitors, SAR follow-up, biochemical, luminescent, dose response (AID 1056)
Active and inactive are the calls of the source.

INPUT: Could you tell me which IC50 is on file for Cn1nc(C(=O)O)cc1-c1ccc(F)cc1 ?
OUTPUT: > 100 µM (inactive)

INPUT: Could you tell me which IC50 is on file for COc1ccc(S(=O)(=O)Nc2cnc3ccccc3c2)c(OC)c1 ?
OUTPUT: 19.5 µM (active)

INPUT: Could you tell me which IC50 is on file for CC1(C)CC(=O)c2c(n[nH]c2Cc2ccccc2)C1 ?
OUTPUT: 1.24 µM (active)

INPUT: Could you tell me which IC50 is on file for CCOc1ccc(S(=O)(=O)Nc2nc3ccccc3nc2Cl)cc1 ?
OUTPUT: > 100 µM (inactive)

INPUT: Could you tell me which IC50 is on file for c1ccc(CN2CCN=C2c2cccnc2)cc1 ?
OUTPUT: > 100 µM (inactive)

====

ASSAY: Vero E6 cell cytotoxicity, dose response, cytotoxicity control for non-replicating M. tuberculosis project, secondary assay (AID 492998)
Assay type: functional, VeroE6
APPLIED CONDITIONS: Mycobacterium tuberculosis, Vero C1008
Activity calls are given as the source filed them.
I'd be grateful if you could share measured CC50 for these entries.

INPUT: Could you tell me which CC50 is on file for CCOc1ccc(-c2nnc(NC(=O)c3ccc(OCC(C)C)c(OC)c3)o2)cc1 ?
OUTPUT: 10.1 µM (active)

INPUT: Could you tell me which CC50 is on file for Cc1cc(S(=O)(=O)c2ccc([N+](=O)[O-])cn2)ccc1Br ?
OUTPUT: 13.6 µM (active)

INPUT: Could you tell me which CC50 is on file for Cc1ccccc1-c1cc2c(nn1)-c1ccccc1C2=O ?
OUTPUT: 9.21 µM (active)

INPUT: Could you tell me which CC50 is on file for Cc1ccc2nc(N/C(N)=N/C(=O)NC3CCCCC3)nc(C)c2c1 ?
OUTPUT: 18.5 µM (active)

====

// each record: one item and its AC50 for Cytochrome P450 3A4 (Homo sapiens, UniProt P08684)

INPUT: Could you tell me which AC50 is on file for CCc1ccc(N(C(=O)c2csnn2)C(C(=O)NCc2ccccc2)c2ccco2)cc1 (configuration not stated) ?
OUTPUT: 1.41 µM (inconclusive)

INPUT: Could you tell me which AC50 is on file for O=C(O/N=C\c1ccc(N2CCCCC2)c([N+](=O)[O-])c1)c1c(F)cccc1F ?
OUTPUT: 12.6 µM (inconclusive)

INPUT: Could you tell me which AC50 is on file for CCCCCCC1CC(C)(/C(C)=N/NC(N)=O)OC1=O (configuration not stated) ?
OUTPUT: 17.8 µM (inconclusive)

INPUT: Could you tell me which AC50 is on file for Cc1cc(=O)oc(C)c1C(=O)NCc1cccnc1 ?
OUTPUT: 25.1 µM (inconclusive)

INPUT: Could you tell me which AC50 is on file for O=C(c1cc(Cl)c(=O)n(Cc2ccc(Cl)cc2)c1)N1CCOCC1 ?
OUTPUT: 28.2 µM (inconclusive)

INPUT: Could you tell me which AC50 is on file for COC(=O)[C@@H]1C[C@H]1[C@@H](NC(=O)c1cc(C)on1)c1ccccc1 ?
OUTPUT: 31.6 µM (inconclusive)

INPUT: Could you tell me which AC50 is on file for Cc1ccc(NC(=O)NCCCc2ccccc2)cc1 ?
OUTPUT: 7.94 µM (inconclusive)

INPUT: Could you tell me which AC50 is on file for CNc1ncc(C(=O)c2ccccc2)s1 ?
OUTPUT: 28.2 µM (inconclusive)

INPUT: Could you tell me which AC50 is on file for Cc1ccc2[nH]c(/C(C#N)=C\c3ccc(OC(=O)c4cccs4)cc3)nc2c1 ?
OUTPUT: 14.1 µM (inconclusive)

INPUT: Could you tell me which AC50 is on file for COC(=O)c1ccccc1-c1ccc(/C=C2\C(=O)N(c3ccccc3)N=C2c2ccccc2)o1 ?
OUTPUT: 2.82 µM (inconclusive)

INPUT: Could you tell me which AC50 is on file for O=C(NNC(=O)C1CCN(S(=O)(=O)c2ccc(Cl)cc2)CC1)c1ccc(Cl)cc1 ?
OUTPUT: 3.55 µM (inconclusive)

INPUT: Could you tell me which AC50 is on file for C[C@H](O/N=C1/[C@H]2O[C@@H]2[C@@H](O)[C@H]2[C@H]1CCn1c(=O)n(-c3ccccc3)c(=O)n12)c1cn([C@H](CO)Cc2ccccc2)nn1 ?
OUTPUT: 3.98 µM (inconclusive)
